B1: Osa-1-4 twister ribozyme (parent)
chain: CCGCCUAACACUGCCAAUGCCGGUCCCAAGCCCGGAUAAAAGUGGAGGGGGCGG

# Variants of: B1
# Protocol Details: self-cleavage, relative activity (ratio to wild type); higher = more cleavage; co-transcriptional
Measured Quantity: self-cleavage

INSERT INTO assay_data (mutation_name, recorded_result) VALUES
  ('G45C G50U', 0.06),
  ('C33G G13C', 0.01),
  ('C11U C52U', 0.98),
  ('A16U C21U', 0.95),
  ('A38U C11U', 0.97),
  ('G42C G50C', 0.15),
  ('G22C U12A', 0.05),
  ('C27G C31A', 0.01),
  ('C20U C27A', 0.23),
  ('A46G G23U', 0.03),
  ('G42U G47A', 0.05),
  ('A16U C52G', 0.92),
  ('A41U C33A', 0.14),
  ('C26U C33A', 0.09),
  ('G34C G48A', 0.06),
  ('G34A G54A', 0.64),
  ('A29G C26U', 0.08),
  ('A46U C14U', 0.06),
  ('C26U G42A', 0.13),
  ('A16C A41U', 0.97),
  ('A7C G42A', 0.04),
  ('G34C G48C', 0.05),
  ('A17U G30A', 0.05),
  ('G13A U43G', 0.04),
  ('C25A C31A', 0.04),
  ('C27U G44A', 0.08),
  ('C9U G51U', 0.11),
  ('G53C U37A', 0.06),
  ('A36U A38U', 0.97),
  ('U18A U37C', 0.98),
  ('A36U A7G', 0.38),
  ('A28G A29C', 0.02),
  ('A36U G54U', 1.02),
  ('A17G G45U', 0.17),
  ('C15A G35U', 0.35),
  ('C25G G35A', 0.12),
  ('G22A U24A', 0.36),
  ('C32A U12C', 0.04),
  ('A46G G35U', 0.08),
  ('A8G G50C', 0.27),
  ('C32U G35A', 0.08),
  ('A8G G35A', 0.4),
  ('A28U C31G', 0.07),
  ('A29G G13U', 0.03),
  ('A10C G23C', 0.01),
  ('C27G G34A', 0.07),
  ('G49U U24G', 0.02),
  ('C14U C21G', 0.06),
  ('C15A G53C', 0.06),
  ('C27A G13C', 0.01),
  ('A17C A36U', 0.66),
  ('G13C G23A', 0.02),
  ('C27G U18A', 0.09),
  ('C20A U12C', 0.57),
  ('A39C A40U', 0.85),
  ('A16C C20U', 0.93),
  ('C9A U18G', 0.31),
  ('G49C G51A', 0.12),
  ('G30A G51C', 0.02),
  ('C25G G44A', 0.06),
  ('C52U', 1.03),
  ('G45A', 0.52),
  ('C27G C33A', 0.03),
  ('C25A C31U', 0.03),
  ('C11A C27A', 0.12),
  ('A10C G19C', 0.02),
  ('A28G C21G', 0.06),
  ('A29U C33G', 0.04),
  ('G13A U12G', 0.09),
  ('C20U C52G', 0.89),
  ('A29G C33U', 0.07),
  ('G34A U37A', 0.88),
  ('C27U G54A', 0.14),
  ('G34A U12C', 0.19),
  ('A40U G22U', 0.21),
  ('A29U U37G', 0.23),
  ('C27A C9A', 0.09),
  ('C52G G53C', 0.24),
  ('C26G G30C', 0.05),
  ('C26U U37G', 1.03),
  ('A36G', 1.03),
  ('C33A U37A', 0.34),
  ('A36U C26A', 0.04),
  ('A38U G45U', 0.09),
  ('G45U G54A', 0.1),
  ('A38U C9G', 0.84),
  ('A39U A7U', 0.08),
  ('C26A U24C', 0.02),
  ('C25G G45A', 0.03),
  ('C11G C9G', 0.19),
  ('A10G G50C', 0.82);
